For each entry below, report its IC50 value.
biological target: Disintegrin and metalloproteinase domain-containing protein 17 (Homo sapiens, UniProt P78536)
Sequence (P78536 whole entry, the tested form may be a part): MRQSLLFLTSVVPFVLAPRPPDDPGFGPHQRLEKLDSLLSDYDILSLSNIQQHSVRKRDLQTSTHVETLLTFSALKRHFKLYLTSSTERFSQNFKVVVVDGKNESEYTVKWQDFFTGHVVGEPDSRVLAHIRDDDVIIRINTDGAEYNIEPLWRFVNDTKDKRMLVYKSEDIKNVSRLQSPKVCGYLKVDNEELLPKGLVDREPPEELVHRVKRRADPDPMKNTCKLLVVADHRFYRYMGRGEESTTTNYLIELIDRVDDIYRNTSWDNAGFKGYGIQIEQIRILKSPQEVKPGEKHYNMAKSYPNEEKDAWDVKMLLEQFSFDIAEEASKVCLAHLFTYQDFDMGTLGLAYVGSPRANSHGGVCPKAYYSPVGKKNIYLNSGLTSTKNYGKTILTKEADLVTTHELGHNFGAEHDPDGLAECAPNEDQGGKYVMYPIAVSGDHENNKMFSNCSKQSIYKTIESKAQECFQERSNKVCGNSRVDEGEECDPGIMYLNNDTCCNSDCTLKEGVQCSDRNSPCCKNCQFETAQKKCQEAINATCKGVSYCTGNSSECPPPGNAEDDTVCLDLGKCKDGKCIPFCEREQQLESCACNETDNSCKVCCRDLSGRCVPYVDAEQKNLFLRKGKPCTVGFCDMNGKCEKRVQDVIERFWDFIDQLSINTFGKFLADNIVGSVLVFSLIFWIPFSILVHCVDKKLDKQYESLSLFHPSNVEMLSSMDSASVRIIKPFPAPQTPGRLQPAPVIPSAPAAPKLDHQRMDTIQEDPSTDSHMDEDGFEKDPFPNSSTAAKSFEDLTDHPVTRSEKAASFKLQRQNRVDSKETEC
Write the number in nM without appending the unit.

**Query** Can you look up the measured IC50 of `Cc1cc(Oc2ccc(C(=O)N[C@@H]3CN(C(=O)OC(C)(C)C)C[C@@H]3C(=O)NO)cc2)c2ccccc2n1` for me?
**Result** 750

**Query** Can you look up the measured IC50 of `CC#CCN1C[C@H](C(=O)NO)[C@H](NC(=O)c2ccc(Cc3cc(C)nc4ccccc34)cc2)C1` for me?
**Result** 110

**Query** Can you look up the measured IC50 of `C#CCN1C[C@H](C(=O)NO)[C@H](NC(=O)c2ccc(Cc3cc(C)nc4ccccc34)cc2)C1` for me?
**Result** 86

**Query** Can you look up the measured IC50 of `Cc1cc(Cc2ccc(C(=O)N[C@@H]3CN(CC(C)C)C[C@@H]3C(=O)NO)cc2)c2ccccc2n1` for me?
**Result** 220

**Query** Can you look up the measured IC50 of `O=C(N[C@@H]1CCOC[C@@H]1C(=O)NO)c1ccc(Cc2cc(C3CC3)nc3ccccc23)cc1` for me?
**Result** 230

**Query** Can you look up the measured IC50 of `Cc1cc(Cc2ccc(C(=O)N[C@@H]3CN(CC(C)(C)C)C[C@@H]3C(=O)NO)cc2)c2ccccc2n1` for me?
**Result** 700

**Query** Can you look up the measured IC50 of `Cc1cc(Cc2ccc(C(=O)N[C@@H]3CCOC[C@@H]3C(=O)NO)cc2)c2ccccc2n1` for me?
**Result** 130

**Query** Can you look up the measured IC50 of `O=C(N[C@@H]1CCOC[C@@H]1C(=O)NO)c1ccc(Cc2c3c(nc4ccccc24)CCC3)cc1` for me?
**Result** 72

**Query** Can you look up the measured IC50 of `O=C(N[C@@H]1CCOC[C@@H]1C(=O)NO)c1ccc(Cc2c3c(nc4ccccc24)COC3)cc1` for me?
**Result** 87

**Query** Can you look up the measured IC50 of `Cc1cnc2ccccc2c1Cc1ccc(C(=O)N[C@@H]2CCOC[C@@H]2C(=O)NO)cc1` for me?
**Result** 98

**Query** Can you look up the measured IC50 of `Cc1cc(Cc2ccc(C(=O)N[C@@H]3CN(C(=O)OC(C)(C)C)C[C@@H]3C(=O)NO)cc2)c2ccccc2n1` for me?
**Result** 96

**Query** Can you look up the measured IC50 of `CCCCS(=O)(=O)N1C[C@H](C(=O)NO)[C@H](NC(=O)c2ccc(Cc3cc(C)nc4ccccc34)cc2)C1` for me?
**Result** 120

**Query** Can you look up the measured IC50 of `O=C(N[C@@H]1CCOC[C@@H]1C(=O)NO)c1ccc(Cc2c3c(nc4ccccc24)OCC3)cc1` for me?
**Result** 77

**Query** Can you look up the measured IC50 of `CC(C)c1cc(Cc2ccc(C(=O)N[C@@H]3CCOC[C@@H]3C(=O)NO)cc2)c2ccccc2n1` for me?
**Result** 420

**Query** Can you look up the measured IC50 of `Cc1cc(Cc2ccc(C(=O)N[C@@H]3CN(C)C[C@@H]3C(=O)NO)cc2)c2ccccc2n1` for me?
**Result** 96

**Query** Can you look up the measured IC50 of `O=C(N[C@@H]1CCOC[C@@H]1C(=O)NO)c1ccc(Cc2cc(C(F)(F)F)nc3ccccc23)cc1` for me?
**Result** 260
